The measurements presented in this section are drawn from PubChem BioAssay (NCI).

system: TK-10 renal; assay: NCI-60 one-dose screen, 48 h; conditions: 10 µM unless noted
About 83,000 compounds went through this panel and 20% of them were active in at least one assay; those are over-represented in the sample as a whole. Activity calls are given as the source filed them. The calls were made as follows: active = growth percent below 10; inactive = the rest.
Would you mind answering with one of these outcomes? active, inactive

I would be grateful if you could indicate the recorded call for COc1nc2ccccc2cc1-c1nc2c(cnn2-c2ccc(Br)cc2)c(=O)[nH]1 . inactive

Dear all, I need the recorded test outcome for COc1cccc(/C=C2\C=C(c3ccccc3)N(Cc3ccccc3)C2=O)c1 , thank you. inactive

Recorded call for O=C(CSc1nccc(Nc2ccc(S(=O)(=O)Nc3nccs3)cc2)n1)c1ccc(C(F)(F)F)cc1 ? inactive
